Each recorded value in this set is attributed to patent US20120172359A1.

Molecular target: Human BACE-1 (Homo sapiens, UniProt P56817)
Sequence (P56817 46-457 limits assumed): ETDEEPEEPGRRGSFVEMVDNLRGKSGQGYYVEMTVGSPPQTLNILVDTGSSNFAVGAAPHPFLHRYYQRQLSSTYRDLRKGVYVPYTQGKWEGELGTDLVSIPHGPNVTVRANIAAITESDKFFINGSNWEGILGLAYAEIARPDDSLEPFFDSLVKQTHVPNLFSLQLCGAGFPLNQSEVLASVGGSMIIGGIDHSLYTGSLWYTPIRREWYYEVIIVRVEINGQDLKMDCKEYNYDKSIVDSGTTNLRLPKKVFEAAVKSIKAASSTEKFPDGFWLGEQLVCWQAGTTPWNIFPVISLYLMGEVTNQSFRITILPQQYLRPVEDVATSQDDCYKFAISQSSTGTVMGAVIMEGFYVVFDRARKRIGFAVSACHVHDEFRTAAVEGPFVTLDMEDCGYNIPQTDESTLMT
Assay: Test 1: Inhibition of Human BACE-1
Format: biochemical
Conditions: Test 1; recombinant BACE-1 (extracellular domain), acetate buffer pH 4.5, 1 hour with test compound at room temperature, fluorescence-quenched peptide substrate; read-out: Bace IC50
Counter-ions that a name gives are not always drawn.
experimental-endpoint: log10 of IC50 (log10 of the value in µM)

INSERT INTO assay_data (compound, experimental_endpoint, measured_value) VALUES
  ('NC1=NC(c2cc(NC(=O)c3ncc(Br)cc3O)c(F)cc2F)(C(F)F)COC1 (centres unmarked) [Example 84, hydrochloride]', 'log10 of IC50', -0.03),
  ('Cc1cc(C(=O)Nc2ccc(F)c([C@]3(C(F)F)COCC(N)=N3)c2)n[nH]1 [Example 142, hydrochloride]', 'log10 of IC50', -0.09),
  ('NC1=N[C@@](c2cc(NC(=O)c3ncc(Cl)cc3O)ccc2F)(C(F)F)COC1', 'log10 of IC50', -1.92),
  ('Cc1cc(Br)cnc1C(=O)Nc1cccc(C2(C(F)F)COCC(N)=N2)c1 (centres unmarked)', 'log10 of IC50', -0.92),
  ('C[C@@]1(c2cc(NC(=O)c3ncc(Cl)cc3N)ccc2F)CO[C@@](C)(C(F)(F)F)C(N)=N1', 'log10 of IC50', -2.10),
  ('Cc1nc(C(=O)Nc2cccc(C3(C)COCC(N)=N3)c2)cs1 (centres unmarked)', 'log10 of IC50', 0.58),
  ('Cc1cc(OCF)cnc1C(=O)Nc1ccc(F)c([C@]2(C(F)F)COCC(N)=N2)c1', 'log10 of IC50', -1.54),
  ('NC1=N[C@@](c2cc(NC(=O)c3ncc(Br)cc3N)ccc2F)(C(F)F)COC1', 'log10 of IC50', -2.10);
